ASSAYED SYSTEM: UniProt:Q9NR97
EXPERIMENT DESCRIPTION: HEK-Blue hTLR8 SEAP reporter gene agonist assay
EXPERIMENTAL CONDITIONS: HEK-Blue hTLR8 cells, 16 to 22 hours incubation
ATTRIBUTE MEASURED: log10 of EC50 (log10 of the value in nM)
Log10 applied to EC50; unit prior to transform: nM.

>  <MOLECULE>
CCC[C@@H](C)Nc1nc(N)nc2ccn(Cc3ccc(CN(CCC)CCO)cc3)c(=O)c12 [Compound I-140]

>  <ASSAYED SYSTEM>
UniProt:Q9NR97

>  <RESULT VALUE>
1.48

$$$$
>  <MOLECULE>
CCCCNc1nc(N)nc2ccn(Cc3ccc(CN4CCCC4)cn3)c(=O)c12 [Compound I-128]

>  <ASSAYED SYSTEM>
UniProt:Q9NR97

>  <RESULT VALUE>
1.82

$$$$
>  <MOLECULE>
CCCCNc1nc(N)nc2ccn(Cc3ccc(CN4CCCC4)cc3OC)c(=O)c12 [Compound I-2]

>  <ASSAYED SYSTEM>
UniProt:Q9NR97

>  <RESULT VALUE>
2.03

$$$$
>  <MOLECULE>
CCC[C@@H](C)Nc1nc(N)nc2ccn(Cc3ccc(CNC)cc3OC)c(=O)c12 [Compound I-198]

>  <ASSAYED SYSTEM>
UniProt:Q9NR97

>  <RESULT VALUE>
0.70

$$$$
>  <MOLECULE>
CCC[C@@H](C)Nc1nc(N)nc2ccn(Cc3ccc(C(=O)N4CC5CC(C4)N5)cc3)c(=O)c12 [Compound I-151]

>  <ASSAYED SYSTEM>
UniProt:Q9NR97

>  <RESULT VALUE>
1.48

$$$$

In one line, give reported log10 of EC50 of the entry COCCNc1nc(N)nc2ccn(Cc3ccc(CN4CCCC4)cc3)c(=O)c12 [Compound I-21] .
1.71

###

ASSAYED SYSTEM: human TLR8 (Homo sapiens)
Sequence (Q9NR97 27-1041): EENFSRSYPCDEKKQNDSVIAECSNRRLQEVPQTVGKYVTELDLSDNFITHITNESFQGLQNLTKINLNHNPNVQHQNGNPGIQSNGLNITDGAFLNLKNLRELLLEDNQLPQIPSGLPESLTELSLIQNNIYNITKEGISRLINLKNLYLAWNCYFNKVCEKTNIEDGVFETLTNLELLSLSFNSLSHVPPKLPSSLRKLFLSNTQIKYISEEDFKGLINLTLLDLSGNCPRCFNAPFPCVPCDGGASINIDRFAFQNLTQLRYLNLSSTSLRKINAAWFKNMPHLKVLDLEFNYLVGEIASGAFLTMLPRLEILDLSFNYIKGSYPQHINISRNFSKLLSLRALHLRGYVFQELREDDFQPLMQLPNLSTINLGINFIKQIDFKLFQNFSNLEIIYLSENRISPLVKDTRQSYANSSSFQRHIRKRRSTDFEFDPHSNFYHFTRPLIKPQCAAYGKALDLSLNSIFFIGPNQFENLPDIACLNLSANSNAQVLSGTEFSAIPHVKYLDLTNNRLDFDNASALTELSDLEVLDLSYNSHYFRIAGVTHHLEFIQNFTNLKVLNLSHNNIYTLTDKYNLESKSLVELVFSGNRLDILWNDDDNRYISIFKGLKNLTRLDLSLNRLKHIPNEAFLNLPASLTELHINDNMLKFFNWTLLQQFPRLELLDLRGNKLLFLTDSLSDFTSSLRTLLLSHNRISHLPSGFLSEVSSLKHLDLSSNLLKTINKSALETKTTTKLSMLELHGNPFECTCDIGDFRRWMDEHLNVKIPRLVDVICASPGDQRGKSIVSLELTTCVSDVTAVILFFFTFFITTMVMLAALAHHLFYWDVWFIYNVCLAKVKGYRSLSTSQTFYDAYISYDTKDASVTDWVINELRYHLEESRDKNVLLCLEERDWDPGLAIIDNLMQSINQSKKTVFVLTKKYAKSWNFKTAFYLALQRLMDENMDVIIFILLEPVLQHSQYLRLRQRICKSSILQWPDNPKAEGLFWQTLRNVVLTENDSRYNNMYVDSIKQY
EXPERIMENT DESCRIPTION: HEK-Blue hTLR8 SEAP reporter gene agonist assay
EXPERIMENTAL CONDITIONS: HEK-Blue hTLR8 cells, 16 to 22 hours incubation
Listed next: entries and their corresponding EC50.
Dear colleague, please return just the value in nM, with no unit written.

Here is how some compounds turned out for EC50.
>  <COMPOUND>
CCC[C@@H](C)Nc1nc(N)nc2ccn(Cc3ccc(CN4CC5(COC5)C4)cc3)c(=O)c12 [Compound I-150]

>  <RESULT VALUE>
30

$$$$
>  <COMPOUND>
CCC[C@@H](C)Nc1nc(N)nc2ccn(Cc3ccc(CN4CCCC4)cc3Cl)c(=O)c12 [Compound I-152]

>  <RESULT VALUE>
110

$$$$
>  <COMPOUND>
CCC[C@@H](C)Nc1nc(N)nc2ccn(Cc3ccc(C(=O)N4CCN(C(C)C)CC4)cc3OC)c(=O)c12 [Compound I-183]

>  <RESULT VALUE>
83

$$$$

API: the following record is the query input.
In one line, give reported EC50 of the entry CCCCNc1nc(N)nc2cc(C)n(Cc3ccc(CN4CCCC4)cc3)c(=O)c12 [Compound I-187] .
64

###

Listed next: entries and their corresponding pEC50.
ASSAYED SYSTEM: human TLR7 (Homo sapiens)
Sequence (Q9NYK1 27-1049): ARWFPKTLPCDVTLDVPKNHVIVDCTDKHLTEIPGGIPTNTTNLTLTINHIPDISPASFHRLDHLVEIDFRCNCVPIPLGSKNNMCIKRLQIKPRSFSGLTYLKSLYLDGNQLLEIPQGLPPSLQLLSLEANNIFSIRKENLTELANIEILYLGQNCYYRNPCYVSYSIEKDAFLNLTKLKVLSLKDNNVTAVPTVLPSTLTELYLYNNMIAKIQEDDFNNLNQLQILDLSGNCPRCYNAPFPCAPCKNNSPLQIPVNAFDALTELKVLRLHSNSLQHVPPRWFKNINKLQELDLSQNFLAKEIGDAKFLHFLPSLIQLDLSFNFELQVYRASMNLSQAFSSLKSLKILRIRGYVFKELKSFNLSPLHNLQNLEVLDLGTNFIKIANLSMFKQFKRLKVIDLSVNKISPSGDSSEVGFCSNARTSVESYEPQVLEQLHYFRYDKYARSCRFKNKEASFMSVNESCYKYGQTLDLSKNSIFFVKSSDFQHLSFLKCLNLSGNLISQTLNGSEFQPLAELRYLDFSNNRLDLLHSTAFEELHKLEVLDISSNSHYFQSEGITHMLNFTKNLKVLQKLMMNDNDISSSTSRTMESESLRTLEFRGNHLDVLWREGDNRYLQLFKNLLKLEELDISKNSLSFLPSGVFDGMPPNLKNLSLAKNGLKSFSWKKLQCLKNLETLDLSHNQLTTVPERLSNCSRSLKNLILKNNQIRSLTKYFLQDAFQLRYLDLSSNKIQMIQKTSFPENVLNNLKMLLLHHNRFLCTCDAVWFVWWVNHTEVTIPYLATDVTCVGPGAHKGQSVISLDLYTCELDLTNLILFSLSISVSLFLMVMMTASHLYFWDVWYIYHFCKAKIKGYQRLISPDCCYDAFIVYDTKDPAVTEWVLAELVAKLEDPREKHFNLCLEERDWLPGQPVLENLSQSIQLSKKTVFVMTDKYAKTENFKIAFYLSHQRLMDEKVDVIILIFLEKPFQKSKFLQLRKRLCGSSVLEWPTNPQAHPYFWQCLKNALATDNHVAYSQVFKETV
EXPERIMENT DESCRIPTION: HEK-Blue hTLR7 SEAP reporter gene agonist assay
EXPERIMENTAL CONDITIONS: HEK-Blue hTLR7 cells, 16 to 22 hours incubation
When answering, recall that pEC50 equals minus log10 of the concentration in mol/L, and write that number alone.

Here is how some compounds turned out for pEC50.
>  <COMPOUND>
CCCCNc1nc(N)nc2ccn(Cc3ccc(C(=O)N4CCN(C)CC4)cc3)c(=O)c12 [Compound I-63]

>  <ASSAYED SYSTEM>
human TLR7 (Homo sapiens)

>  <pEC50>
7.09

$$$$
>  <COMPOUND>
CCC[C@@H](C)Nc1nc(N)nc2ccn(Cc3ccc(C(=O)N4CC5CC(C4)N5)cc3)c(=O)c12 [Compound I-151]

>  <ASSAYED SYSTEM>
human TLR7 (Homo sapiens)

>  <pEC50>
7.10

$$$$
>  <COMPOUND>
CCCCNc1nc(N)nc2ccn(Cc3ccc(C(=O)N4CCNCC4)cc3OC)c(=O)c12 [Compound I-72]

>  <ASSAYED SYSTEM>
human TLR7 (Homo sapiens)

>  <pEC50>
7.19

$$$$
>  <COMPOUND>
CCCCNc1nc(N)nc2ccn(Cc3ccc(CN(C)C)cc3)c(=O)c12 [Compound I-35]

>  <ASSAYED SYSTEM>
human TLR7 (Homo sapiens)

>  <pEC50>
7.06

$$$$
>  <COMPOUND>
CCC[C@@H](CO)Nc1nc(N)nc2ccn(Cc3ccc(CN4CCCC4)cc3OC)c(=O)c12 [Compound I-158]

>  <ASSAYED SYSTEM>
human TLR7 (Homo sapiens)

>  <pEC50>
8.00

$$$$
>  <COMPOUND>
CCCC(CCOC(=O)C(F)(F)F)Nc1nc(N)nc2ccn(Cc3ccc(CN4CCCC4)cc3)c(=O)c12 (centres unmarked) [Compound I-96]

>  <ASSAYED SYSTEM>
human TLR7 (Homo sapiens)

>  <pEC50>
7.30

$$$$
>  <COMPOUND>
CCCCNc1nc(N)nc2ccn(Cc3ccc(C(=O)N4C5CNCC4C5)cc3)c(=O)c12 [Compound I-65]

>  <ASSAYED SYSTEM>
human TLR7 (Homo sapiens)

>  <pEC50>
6.69

$$$$
>  <COMPOUND>
CCCCNc1nc(N)nc2ccn(Cc3ccc(C(=O)N4CCN(C)CC4)c(OC)c3)c(=O)c12 [Compound I-79]

>  <ASSAYED SYSTEM>
human TLR7 (Homo sapiens)

>  <pEC50>
7.06

$$$$

In one line, give reported pEC50 of the entry CCCCNc1nc(N)nc2ccn(Cc3ccc(CN4CCCC4)cc3OC)c(=O)c12 [Compound I-2] .
7.19

In one line, give reported pEC50 of the entry CCC[C@@H](CC)Nc1nc(N)nc2ccn(Cc3ccc(CN4CCCC4)cc3)c(=O)c12 [Compound I-138] .
7.24

In one line, give reported pEC50 of the entry CCCCNc1nc(N)nc2ccn(Cc3ccc(C(=O)N4CCN(C(C)C)CC4)cc3)c(=O)c12 [Compound I-53] .
7.21

In one line, give reported pEC50 of the entry CCCCNc1nc(N)nc2ccn(Cc3ccc(CCN(C)C)cc3)c(=O)c12 [Compound I-90] .
7.17

In one line, give reported pEC50 of the entry CCC[C@@H](C)Nc1nc(N)nc2ccn(Cc3ccc(OCCNC)nc3)c(=O)c12 [Compound I-153] .
7.05

In one line, give reported pEC50 of the entry CCC[C@@H](CCO)Nc1nc(N)nc2ccn(Cc3ccc(CN4CCCC4)cc3)c(=O)c12 [Compound I-118] .
7.40

In one line, give reported pEC50 of the entry CCC[C@@H](C)Nc1nc(N)nc2ccn(Cc3ccc(CN4CCN(CCCO)CC4)cc3OC)c(=O)c12 [Compound I-216] .
7.20

In one line, give reported pEC50 of the entry CCC[C@@H](C)Nc1nc(N)nc2ccn(Cc3ccc(C(=O)N4C5CNCC4C5)cc3)c(=O)c12 [Compound I-161] .
6.96

In one line, give reported pEC50 of the entry CCC[C@@H](C)Nc1nc(N)nc2ccn(Cc3ccc(C(=O)N4CCNCC4)cc3OC)c(=O)c12 [Compound I-180] .
7.42

In one line, give reported pEC50 of the entry CCC[C@@H](C)Nc1nc(N)nc2ccn(Cc3ccc(CN4CCCC4)cc3Cl)c(=O)c12 [Compound I-152] .
7.10

In one line, give reported pEC50 of the entry CCCCNc1nc(N)nc2ccn(Cc3ccc(C(=O)N4CCNCC4)cc3)c(=O)c12 [Compound I-14] .
7.07

In one line, give reported pEC50 of the entry CCC[C@@H](COC)Nc1nc(N)nc2ccn(Cc3ccc(CN4CCCC4)cc3OC)c(=O)c12 [Compound I-163] .
7.52

Sourced from patent US20250059183A1
